TARGET_UNDER_TEST: ALK (Homo sapiens, UniProt Q9UM73)
Sequence (Q9UM73 19-1620): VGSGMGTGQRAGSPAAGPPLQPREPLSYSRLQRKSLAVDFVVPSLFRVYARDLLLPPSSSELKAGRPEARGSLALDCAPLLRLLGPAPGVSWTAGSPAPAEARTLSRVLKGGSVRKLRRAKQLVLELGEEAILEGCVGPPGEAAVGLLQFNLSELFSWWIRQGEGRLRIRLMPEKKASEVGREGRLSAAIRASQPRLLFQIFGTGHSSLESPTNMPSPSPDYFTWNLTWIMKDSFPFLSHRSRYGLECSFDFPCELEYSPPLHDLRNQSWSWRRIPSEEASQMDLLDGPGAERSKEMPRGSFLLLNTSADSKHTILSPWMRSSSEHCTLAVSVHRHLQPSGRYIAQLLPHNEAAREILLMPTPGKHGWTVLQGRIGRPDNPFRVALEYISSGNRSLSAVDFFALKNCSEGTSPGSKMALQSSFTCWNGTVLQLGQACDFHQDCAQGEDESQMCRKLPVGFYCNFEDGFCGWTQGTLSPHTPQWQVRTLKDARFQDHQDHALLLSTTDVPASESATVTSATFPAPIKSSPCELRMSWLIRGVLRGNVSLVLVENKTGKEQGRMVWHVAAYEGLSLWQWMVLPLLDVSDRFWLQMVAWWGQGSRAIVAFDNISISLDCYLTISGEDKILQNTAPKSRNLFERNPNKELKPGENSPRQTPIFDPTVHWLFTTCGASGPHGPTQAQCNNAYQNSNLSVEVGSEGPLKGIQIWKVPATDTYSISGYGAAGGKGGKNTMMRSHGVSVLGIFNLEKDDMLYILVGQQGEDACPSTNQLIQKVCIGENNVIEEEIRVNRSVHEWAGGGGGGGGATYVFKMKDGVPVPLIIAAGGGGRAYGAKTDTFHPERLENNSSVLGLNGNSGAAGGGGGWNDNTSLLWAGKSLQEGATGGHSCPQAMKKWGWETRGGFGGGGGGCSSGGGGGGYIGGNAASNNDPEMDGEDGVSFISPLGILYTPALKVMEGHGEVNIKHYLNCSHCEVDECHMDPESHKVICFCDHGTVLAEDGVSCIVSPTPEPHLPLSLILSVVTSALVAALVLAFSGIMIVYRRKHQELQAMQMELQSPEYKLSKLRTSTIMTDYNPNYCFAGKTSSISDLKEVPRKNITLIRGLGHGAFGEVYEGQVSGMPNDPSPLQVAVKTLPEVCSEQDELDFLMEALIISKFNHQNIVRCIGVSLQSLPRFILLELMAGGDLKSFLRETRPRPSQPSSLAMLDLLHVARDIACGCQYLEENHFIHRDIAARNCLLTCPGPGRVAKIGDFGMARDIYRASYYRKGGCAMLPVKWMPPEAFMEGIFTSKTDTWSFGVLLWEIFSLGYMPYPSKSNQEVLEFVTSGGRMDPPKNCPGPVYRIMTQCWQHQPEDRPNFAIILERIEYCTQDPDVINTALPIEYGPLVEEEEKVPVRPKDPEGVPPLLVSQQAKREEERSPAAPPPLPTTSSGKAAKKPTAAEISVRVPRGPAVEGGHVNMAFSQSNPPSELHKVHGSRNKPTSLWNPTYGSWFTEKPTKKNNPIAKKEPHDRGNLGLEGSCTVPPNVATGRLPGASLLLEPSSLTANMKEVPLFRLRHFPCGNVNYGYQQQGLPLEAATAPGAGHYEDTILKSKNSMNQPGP
METHOD: ALK phosphorylation / ALK signaling activity of ALK antibodies
Type: cell-based
RESULT_TYPE: activity on ALK signaling

ALK Antibody 5: mouse hybridoma anti-ALK antibody against extracellular domain of human ALK receptor; VL/VH sequences in Tables 1 and 2 (antibody, V domains shown) VH: QVQLQQSGAELAKPGASVKLSCKASGYTFTSYWMHWVKQRPGQGLEWIGYIKPSSGYTKYNQKFKDKATLTADKSSSTAYMQLSSLTYEDSAVYYCARDYYGSSSWFAYWGQGTLVTVSA VL: DIVMTQSQRFMSTSVGDRVSVTCKASQNVGTNVAWYQQKPGQSPKALIYSASYRYSGVPDRFTGSGSGTDFTLTISNVQSEDLAEYFCQQYNSYPYMYTFGGGTKLEIKR
inhibited ALK signaling
ALK Antibody 6: mouse hybridoma anti-ALK antibody against extracellular domain of human ALK receptor; VL/VH sequences in Tables 1 and 2 (antibody, V domains shown) VH: DVKLVESGEGLVKPGGSLKLSCAASGFTFSSYAMSWVRQTPEKRLEWVTYISSGGDYIYYADTVKGRFTISRDNARNTLYLQMSSLKSEDTAMYYCTRERIWLRRFFDVWGTGTTVTVSS VL: DIVMTQSQKFMSTSVGDRVSITCKASQNVGTAVAWYQLKPGQSPKLLIYSASNRFTGVPDRFTGSGSGTDFTLTISNMQSEDLADYFCQQYSSYPLTFGSGTKLEIKR
inhibited ALK signaling
